# IC50 listing for each entry below
- assayed-system: sodium-proton exchanger of subtype 3 (NHE3) (Homo sapiens)
- Construct: expressed in transfected cells
- procedure-details: Recovery of intracellular pH (pHi) after acidification in LAP1 cells stably expressing NHE3 (BCECF fluorescence, FLIPR)
- Assay type: cell-based
- condition-set: LAP1 cells stably expressing NHE3; pH recovery after acidification; range 1 is % inhibition at 10 μM; read-out: Activity range (inhibitory effect on NHE3)

{"molecule": "CN1CCCN([C@H]2Cc3c(Cl)cc(Cl)cc3[C@@H]2Oc2ccc(S(C)(=O)=O)cc2)CC1 [Example 305]", "IC50": "< 1000 nM"}

Task: Reported IC50, molecule NCC1CCN([C@@H]2Cc3ccccc3[C@H]2Oc2ccc(S(N)(=O)=O)c(Cl)c2Cl)C1 (mixture of isomers) : ____
Result: 1000 to 10000 nM

Task: Name the recorded IC50 for N[C@@H]1CCCN([C@@H]2Cc3ccccc3[C@H]2Oc2ccc(NC(=O)OCc3ccccc3)cc2)C1 (racemic) .
Result: 1000 to 10000 nM

Task: Looking for the measured IC50 of CS(=O)(=O)c1ccc(N[C@H]2c3ccccc3C[C@@H]2N2CCCC2)cc1 , can you help?
Result: 1000 to 10000 nM

###

- assayed-system: sodium-proton exchanger of subtype 3 (NHE3) (Homo sapiens, UniProt P48764)
- Construct: expressed in transfected cells
- Sequence (P48764 26-834, species assumed): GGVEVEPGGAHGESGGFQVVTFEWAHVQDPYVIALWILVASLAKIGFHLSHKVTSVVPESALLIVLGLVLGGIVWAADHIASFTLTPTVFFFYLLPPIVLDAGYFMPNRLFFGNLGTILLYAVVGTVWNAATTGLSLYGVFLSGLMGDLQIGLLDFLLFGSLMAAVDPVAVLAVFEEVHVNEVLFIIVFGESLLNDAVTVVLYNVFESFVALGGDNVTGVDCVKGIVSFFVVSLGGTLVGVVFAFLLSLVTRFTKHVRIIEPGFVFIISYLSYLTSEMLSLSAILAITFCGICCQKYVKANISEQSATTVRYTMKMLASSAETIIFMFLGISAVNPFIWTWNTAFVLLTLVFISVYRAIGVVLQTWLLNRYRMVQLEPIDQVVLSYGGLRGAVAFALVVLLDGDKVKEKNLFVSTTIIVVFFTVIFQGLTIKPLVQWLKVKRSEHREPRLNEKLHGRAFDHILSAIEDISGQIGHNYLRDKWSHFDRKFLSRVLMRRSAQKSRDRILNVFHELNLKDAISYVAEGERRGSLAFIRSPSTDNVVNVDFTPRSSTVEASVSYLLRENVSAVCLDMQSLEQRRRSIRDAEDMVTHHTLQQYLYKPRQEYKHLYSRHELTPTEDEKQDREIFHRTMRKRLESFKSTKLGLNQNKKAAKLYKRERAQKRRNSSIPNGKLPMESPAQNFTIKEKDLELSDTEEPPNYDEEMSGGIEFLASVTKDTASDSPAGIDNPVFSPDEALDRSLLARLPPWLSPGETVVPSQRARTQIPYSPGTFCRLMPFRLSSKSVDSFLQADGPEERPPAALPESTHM
- procedure-details: Recovery of intracellular pH (pHi) after acidification in LAP1 cells stably expressing NHE3 (BCECF fluorescence, FLIPR)
- Format: cell-based
- condition-set: LAP1 cells stably expressing NHE3; pH recovery after acidification; range 1 is % inhibition at 10 μM; read-out: Activity range (inhibitory effect on NHE3)
quantity: IC50

Use these answered entries as a reference point.
{"compound": "COc1cc(Cl)cc(O[C@@H]2c3ccccc3C[C@H]2N2CCC(CN)CC2)c1 (racemic) [Example 612]", "IC50": "1 to 10 µM"}
{"compound": "Cn1ccn(-c2cccc(O[C@H]3c4cc(Cl)cc(Cl)c4C[C@@H]3N3CCNCC3)c2)c1=O (racemic) [Example 257]", "IC50": "< 1 µM"}
{"compound": "CC(=O)Nc1cccc(O[C@H]2c3ccccc3C[C@@H]2N2CCCCCC2)c1 (racemic) [Example 636]", "IC50": "< 1 µM"}
{"compound": "Cc1cn(-c2ccc(O[C@H]3c4cc(Cl)cc(F)c4C[C@@H]3N3CC[C@@H](O)C3)cc2)c(C(C)C)n1 [Example 720]", "IC50": "1 to 10 µM"}
{"compound": "O=C1CCCN1c1ccc(Cl)c(O[C@H]2c3cc(Cl)cc(Cl)c3C[C@@H]2N2CC[C@@H](O)C2)c1 [Example 336]", "IC50": "< 1 µM"}
{"compound": "CN(C1CCCNC1)[C@@H]1Cc2ccccc2[C@H]1Oc1cccc2[nH]ccc12 (mixture of isomers) [Example 214]", "IC50": "1 to 10 µM"}
{"compound": "NCC1CCN([C@@H]2Cc3ccccc3[C@H]2Oc2ccc(NC(=O)OCc3ccccc3)cc2)C1 (mixture of isomers) [Example 240]", "IC50": "1 to 10 µM"}
{"compound": "Cc1nnc(C)n1-c1ccc(O[C@H]2c3cc(Cl)cc(Cl)c3C[C@@H]2N2CCCN(C)CC2)cc1 [Example 349]", "IC50": "< 1 µM"}
{"compound": "CCc1ccc(O[C@@H]2c3ccccc3C[C@H]2N2CCC(CN)C2)c(C(C)(C)C)c1 (mixture of isomers) [Example 610]", "IC50": "1 to 10 µM"}
{"compound": "N[C@@H]1CCCN([C@H]2CCc3ccccc3[C@@H]2Oc2ccc(Br)cc2-c2cc[nH]n2)C1 (racemic) [Example 117]", "IC50": "1 to 10 µM"}

Task: Please look up its IC50: O=C1COCC(=O)N1c1ccc(O[C@H]2c3cc(Cl)cc(Cl)c3C[C@@H]2N2CC[C@@H](O)C2)c(F)c1 [Example 560]
Result: < 1 µM

Task: Which IC50 is reported for this compound? CS(=O)(=O)c1nccn1-c1ccc(O[C@H]2c3cc(Cl)cc(F)c3C[C@@H]2NC2CCCC2)c(F)c1 [Example 754]
Result: < 1 µM

Task: Can you share its IC50? I mean this compound: Cc1cn(-c2ccc(O[C@H]3c4cc(Cl)cc(Cl)c4C[C@@H]3N3CC[C@@H](O)C3)cc2)c(C(C)C)n1 [Example 714]
Result: 1 to 10 µM

Task: Quick one: IC50 of N#Cc1c(F)cccc1O[C@@H]1c2ccccc2C[C@H]1N1CCC(CN)C1 (mixture of isomers) [Example 374] ?
Result: 1 to 10 µM

Task: // returns reported IC50 for input Cc1nnc(C)n1-c1ccc(O[C@H]2c3cc(Cl)ccc3C[C@@H]2N2CCCC2)cc1 [Example 502]
Result: < 1 µM

Task: I would be grateful if you could share the reported IC50 for CS(=O)(=O)c1ccc(N[C@H]2c3cc(Cl)cc(Cl)c3C[C@@H]2N2CC[C@@H](O)C2)cc1 [Example 26] .
Result: 1 to 10 µM

Task: Reported IC50 for CCN(CC)[C@@H]1Cc2ccccc2[C@H]1Oc1ccc(S(N)(=O)=O)c(Cl)c1Cl (racemic) [Example 355] : what is it?
Result: 1 to 10 µM

Task: Requested field: IC50. Item: CCc1nnc(C(C)C)n1-c1ccc(O[C@H]2c3cc(Cl)cc(Cl)c3C[C@@H]2N2CC[C@@H](O)C2)cc1 [Example 716]
Result: < 1 µM
